Recorded IC50 values for a group of compounds are listed next.
Molecular target: Recombinant GST-TAG-MASTL (Homo sapiens, UniProt Q96GX5)
Construct: GST; purchased Thermo Fisher Scientific
Sequence (Q96GX5 1-879): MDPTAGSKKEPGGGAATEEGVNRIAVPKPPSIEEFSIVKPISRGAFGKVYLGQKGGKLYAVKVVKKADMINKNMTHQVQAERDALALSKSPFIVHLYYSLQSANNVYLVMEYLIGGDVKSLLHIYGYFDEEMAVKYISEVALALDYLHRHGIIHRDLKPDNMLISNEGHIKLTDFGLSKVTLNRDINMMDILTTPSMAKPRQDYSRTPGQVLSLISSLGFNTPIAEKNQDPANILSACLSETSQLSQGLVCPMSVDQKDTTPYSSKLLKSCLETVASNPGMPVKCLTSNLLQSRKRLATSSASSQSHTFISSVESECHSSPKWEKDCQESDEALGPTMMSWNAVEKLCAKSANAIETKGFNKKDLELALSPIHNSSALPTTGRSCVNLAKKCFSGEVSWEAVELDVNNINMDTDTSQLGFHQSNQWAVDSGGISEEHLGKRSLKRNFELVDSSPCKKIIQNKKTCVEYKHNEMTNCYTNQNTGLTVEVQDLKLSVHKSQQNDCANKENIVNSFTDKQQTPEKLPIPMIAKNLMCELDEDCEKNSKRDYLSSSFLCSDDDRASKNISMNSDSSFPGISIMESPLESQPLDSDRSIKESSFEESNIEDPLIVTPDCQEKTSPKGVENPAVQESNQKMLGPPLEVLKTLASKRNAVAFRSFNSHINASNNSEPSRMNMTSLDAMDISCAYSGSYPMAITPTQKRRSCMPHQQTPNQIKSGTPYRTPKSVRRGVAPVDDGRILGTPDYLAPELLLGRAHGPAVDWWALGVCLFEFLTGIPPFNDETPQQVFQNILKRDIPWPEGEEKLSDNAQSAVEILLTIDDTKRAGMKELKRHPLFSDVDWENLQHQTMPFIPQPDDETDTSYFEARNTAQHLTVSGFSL
Assay: HTRF-based kinase assay (HTRF KinEASE assay kit)
Assay type: biochemical
Conditions: HTRF; read-out: IC50(nM) MASTL activity
# number then unit; no other words

Consider the worked cases shown below.
1. CNCc1ccc(-c2nc(Nc3cc(C4CC4)[nH]n3)c3ccccc3n2)cc1 : 119 nM
2. OCCN1CCN(c2nc(Nc3cc(C4CC4)[nH]n3)c3ccccc3n2)CC1 [compound 12b] : 807 nM

In the following, a different compound is considered.
Ask: Write down IC50 measured for item CNS(=O)(=O)c1ccc(Nc2nc(Nc3cc(C4CC4)[nH]n3)c3ccccc3n2)cc1
Reply: 843 nM

---

Recorded IC50 values for a group of compounds are listed next.
molecular target: Recombinant GST-TAG-MASTL (Homo sapiens); construct: GST; purchased Thermo Fisher Scientific; assay: HTRF-based kinase assay (HTRF KinEASE assay kit); type: biochemical; conditions: HTRF; read-out: IC50(nM) MASTL activity

Consider the worked cases shown below.
1. CC(C)S(=O)(=O)N1CC2CCC1CN2c1nc(Nc2cc(C3CC3)[nH]n2)c2ccccc2n1 (centres unmarked) [compound 24a] : 180 nM
2. CN(C)S(=O)(=O)c1ccc(Nc2nc(Nc3cc(C4CC4)[nH]n3)c3ccccc3n2)cc1 : 527 nM
3. CCCS(=O)(=O)N1CC2CC1CN2c1nc(Nc2cc(C3CC3)[nH]n2)c2ccccc2n1 (centres unmarked) [compound 15j] : 284 nM
4. c1ccc2c(Nc3cc(C4CC4)[nH]n3)nc(Nc3cccc4[nH]ccc34)nc2c1 : 309 nM
5. O=S(=O)(C1CCCCC1)N1CC2CCC1CN2c1nc(Nc2cc(C3CC3)[nH]n2)c2ccccc2n1 (centres unmarked) [compound 24b] : 198 nM
6. O=S(=O)(c1ccc2ccccc2c1)N1CC2CC1CN2c1nc(Nc2cc(C3CC3)[nH]n2)c2ccccc2n1 (centres unmarked) [compound 15y] : 928 nM
7. CC(C)(C)OC(=O)N1CC=C(c2nc(Nc3cc(C4CC4)[nH]n3)c3ccccc3n2)CC1 : 315 nM

Ask: Write down IC50 measured for item CC(C)S(=O)(=O)N1CC2CC1CN2c1nc(Nc2cc(C3CC3)[nH]n2)c2ccccc2n1 (centres unmarked) [compound 15h]
Reply: 147 nM

---

Recorded viability at 1.25 µM values for a group of compounds are listed next.
assay: in vitro; details: human
Write it as a number; the unit % goes unstated.

1) c1ccc(CCNc2nc(Nc3cc(C4CC4)[nH]n3)c3ccccc3n2)cc1 : 100

Ask: Write down viability at 1.25 µM measured for item Nc1nc(Nc2cc(C3CC3)[nH]n2)c2ccccc2n1
Reply: 99.1

Ask: Write down viability at 1.25 µM measured for item c1ccc(CNc2nc(Nc3cc(C4CC4)[nH]n3)c3ccccc3n2)cc1
Reply: 98.5

Ask: Write down viability at 1.25 µM measured for item CNCc1ccc(-c2nc(Nc3cc(C4CC4)[nH]n3)c3ccccc3n2)cc1
Reply: 11.1

Ask: Write down viability at 1.25 µM measured for item CNc1nc(Nc2cc(C3CC3)[nH]n2)c2ccccc2n1
Reply: 102

Ask: Write down viability at 1.25 µM measured for item COc1ccc(CNc2nc(Nc3cc(C4CC4)[nH]n3)c3ccccc3n2)cc1
Reply: 83.9

---

target: Recombinant GST-TAG-MASTL (Homo sapiens, UniProt Q96GX5); construct: GST; purchased Thermo Fisher Scientific; assay: HTRF-based kinase assay (HTRF KinEASE assay kit); format: biochemical; conditions: compound 1 µM; read-out: MASTL activity (%) HTRF (1 µM)
Binary classification by activity at 1 µM, with 50% as an inclusive lower bound for label 1; all other cases are label 0.

Example cases with answers are listed next.
1) CNC(=O)c1ccc(Nc2nc(Nc3cc(C4CC4)[nH]n3)c3ccccc3n2)cc1 [4ae] : label 0
2) CC(C)C(=O)N1CC2CC1CN2c1nc(Nc2cc(C3CC3)[nH]n2)c2ccccc2n1 (stereo not drawn) [compound 15d] : label 1
3) Fc1cc(Br)ccc1Nc1nc(Nc2cc(C3CC3)[nH]n2)c2ccccc2n1 [compound 4c] : label 0
4) CCCS(=O)(=O)N1CC2CC1CN2c1nc(Nc2cc(C3CC3)[nH]n2)c2ccccc2n1 (stereo not drawn) [compound 15j] : label 0
5) CCc1ccccc1C1=CCN(c2nc(Nc3cc(C4CC4)[nH]n3)c3ccccc3n2)CC1 [compound 6m] : label 1
6) C1=C(Cc2ccccc2)CCN(c2nc(Nc3cc(C4CC4)[nH]n3)c3ccccc3n2)C1 [compound 6h] : label 0
7) O=C(Nc1ccccc1)N1CC2CC1CN2c1nc(Nc2cc(C3CC3)[nH]n2)c2ccccc2n1 (stereo not drawn) [compound 15c] : label 0
8) O=S(=O)(c1ccc(F)cc1F)N1CC2CC1CN2c1nc(Nc2cc(C3CC3)[nH]n2)c2ccccc2n1 (stereo not drawn) [compound 15o] : label 0
9) C1=C(c2cccc3ccccc23)CCN(c2nc(Nc3cc(C4CC4)[nH]n3)c3ccccc3n2)C1 [compound 6i] : label 1
10) N#CCc1ccc(Nc2nc(Nc3cc(C4CC4)[nH]n3)c3ccccc3n2)cc1 [compound 3a] : label 0

Ask: Exam item: decide whether the reported activity at 1 µM for O=S(=O)(c1ccc(F)cc1)N1CC2CC1CN2c1nc(Nc2cc(C3CC3)[nH]n2)c2ccccc2n1 (stereo not drawn) [compound 15n] is at least 50%.
Reply: label 0

Ask: Exam item: decide whether the reported activity at 1 µM for c1ccc2c(Nc3cc(C4CC4)[nH]n3)nc(Nc3cnc4cccnn34)nc2c1 [compound 4dh] is at least 50%.
Reply: label 1

Ask: Exam item: decide whether the reported activity at 1 µM for N#CCc1ccc(Nc2nc(NC3=NC(=O)CS3)c3ccccc3n2)cc1 [compound 3j] is at least 50%.
Reply: label 1

Ask: Exam item: decide whether the reported activity at 1 µM for c1ccc2c(Nc3cc(C4CC4)[nH]n3)nc(Nc3ccc4cc[nH]c4c3)nc2c1 [compound 4dc] is at least 50%.
Reply: label 0

Ask: Exam item: decide whether the reported activity at 1 µM for O=S(=O)(c1ccccc1)N1CC2CC1CN2c1nc(Nc2cc(C3CC3)[nH]n2)c2ccccc2n1 (stereo not drawn) [compound 15m] is at least 50%.
Reply: label 0

Ask: Exam item: decide whether the reported activity at 1 µM for CC(C)(C)OC(=O)NCCCNC(=O)c1ccc(Nc2nc(Nc3cc(C4CC4)[nH]n3)c3ccccc3n2)cc1 [4x] is at least 50%.
Reply: label 1

Ask: Exam item: decide whether the reported activity at 1 µM for Cc1ccc(S(=O)(=O)N2CC3CC2CN3c2nc(Nc3cc(C4CC4)[nH]n3)c3ccccc3n2)cc1F (stereo not drawn) [compound 15w] is at least 50%.
Reply: label 1

Ask: Exam item: decide whether the reported activity at 1 µM for CC(C)(C)OC(=O)N1CC2CCC1CN2c1nc(Nc2cc(C3CC3)[nH]n2)c2ccccc2n1 (stereo not drawn) [compound 19] is at least 50%.
Reply: label 0

Ask: Exam item: decide whether the reported activity at 1 µM for Cc1cc(Nc2nc(N3CC4CC3CN4C(=O)C(C)C)nc3ccccc23)n[nH]1 (stereo not drawn) [compound 27c] is at least 50%.
Reply: label 1

Ask: Exam item: decide whether the reported activity at 1 µM for O=C1Cc2cc(Nc3nc(Nc4cc(C5CC5)[nH]n4)c4ccccc4n3)ccc2N1 [compound 4di] is at least 50%.
Reply: label 0
